Source of measurements: the supplement of paper PMC7765376

tested on: PEO-1; experiment: Excess HSA synergy score (sum over dose matrix of excess over highest single agent) (score (summed % response)); higher = less synergy / more antagonism (negative = synergy); conditions: 72 h; read-out: viability/apoptosis luminescence (CellTiter-Glo or Caspase3-Glo / not stated per table); matrix design: 6x6, 5-fold dilutions (primary screen)
Whole data set: some 1,500 compounds, median “Excess HSA synergy score (sum over dose matrix of excess over highest single agent)” near 43, cut for the lowest 2% near -900. This is one part of a sample in which the lowest values are shown more often than they occur.

compound | study-target | Excess HSA synergy score
Nc1nccc(-c2ccc3noc(-c4ccc(Cl)cc4)c3c2)n1 [Pim 1 Inhibitor 2] + CC[C@H](NC(=O)[C@H](C)NC)C(=O)N1C[C@@H](O)C[C@H]1Cc1c(-c2[nH]c3cc(F)ccc3c2C[C@@H]2C[C@H](O)CN2C(=O)[C@H](CC)NC(=O)[C@H](C)NC)[nH]c2cc(F)ccc12 | PEO-1 | 12.2
Cc1cc(Nc2cc(N3CCN(C)CC3)nc(Sc3ccc(NC(=O)C4CC4)cc3)n2)n[nH]1 [Tozasertib] + CC[C@H](NC(=O)[C@H](C)NC)C(=O)N1C[C@@H](O)C[C@H]1Cc1c(-c2[nH]c3cc(F)ccc3c2C[C@@H]2C[C@H](O)CN2C(=O)[C@H](CC)NC(=O)[C@H](C)NC)[nH]c2cc(F)ccc12 | PEO-1 | -170
C[C@H]1[C@H](C)CC[C@]2(C(=O)O)CC[C@]3(C)C(=CC[C@@H]4[C@@]5(C)C[C@@H](O)[C@H](O)[C@@](C)(CO)[C@@H]5CC[C@]43C)[C@H]12 [Asiatic acid] + CC[C@H](NC(=O)[C@H](C)NC)C(=O)N1C[C@@H](O)C[C@H]1Cc1c(-c2[nH]c3cc(F)ccc3c2C[C@@H]2C[C@H](O)CN2C(=O)[C@H](CC)NC(=O)[C@H](C)NC)[nH]c2cc(F)ccc12 | PEO-1 | 84.9
Cc1nc(Nc2ncc(C(=O)Nc3c(C)cccc3Cl)s2)cc(N2CCN(CCO)CC2)n1 [Dasatinib] + CC[C@H](NC(=O)[C@H](C)NC)C(=O)N1C[C@@H](O)C[C@H]1Cc1c(-c2[nH]c3cc(F)ccc3c2C[C@@H]2C[C@H](O)CN2C(=O)[C@H](CC)NC(=O)[C@H](C)NC)[nH]c2cc(F)ccc12 | PEO-1 | -329
C=C(C)[C@@H]1CC[C@]2(C)CC[C@]3(C)[C@H](CC[C@@H]4[C@@]5(C)CC[C@H](O)C(C)(C)[C@@H]5CC[C@]43C)[C@@H]12 [Lupeol] + CC[C@H](NC(=O)[C@H](C)NC)C(=O)N1C[C@@H](O)C[C@H]1Cc1c(-c2[nH]c3cc(F)ccc3c2C[C@@H]2C[C@H](O)CN2C(=O)[C@H](CC)NC(=O)[C@H](C)NC)[nH]c2cc(F)ccc12 | PEO-1 | -39.9
COc1ccc(-c2cc3c(C)nc(N)nc3n([C@H]3CC[C@H](OCCO)CC3)c2=O)cn1 + CC[C@H](NC(=O)[C@H](C)NC)C(=O)N1C[C@@H](O)C[C@H]1Cc1c(-c2[nH]c3cc(F)ccc3c2C[C@@H]2C[C@H](O)CN2C(=O)[C@H](CC)NC(=O)[C@H](C)NC)[nH]c2cc(F)ccc12 | PEO-1 | -32.5
C[C@@H](Oc1cc(-n2cnc3ccc(CN4CCN(C)CC4)cc32)sc1C(N)=O)c1ccccc1C(F)(F)F + CC[C@H](NC(=O)[C@H](C)NC)C(=O)N1C[C@@H](O)C[C@H]1Cc1c(-c2[nH]c3cc(F)ccc3c2C[C@@H]2C[C@H](O)CN2C(=O)[C@H](CC)NC(=O)[C@H](C)NC)[nH]c2cc(F)ccc12 | PEO-1 | -274
COc1cc2ncn(-c3cc(OCc4ccccc4S(C)(=O)=O)c(C#N)s3)c2cc1OC [IKK-3 Inhibitor IX] + CC[C@H](NC(=O)[C@H](C)NC)C(=O)N1C[C@@H](O)C[C@H]1Cc1c(-c2[nH]c3cc(F)ccc3c2C[C@@H]2C[C@H](O)CN2C(=O)[C@H](CC)NC(=O)[C@H](C)NC)[nH]c2cc(F)ccc12 | PEO-1 | 113
CC(C)c1cc(C(=O)N2Cc3ccc(CN4CCN(C)CC4)cc3C2)c(O)cc1O [Onalespib] + CC[C@H](NC(=O)[C@H](C)NC)C(=O)N1C[C@@H](O)C[C@H]1Cc1c(-c2[nH]c3cc(F)ccc3c2C[C@@H]2C[C@H](O)CN2C(=O)[C@H](CC)NC(=O)[C@H](C)NC)[nH]c2cc(F)ccc12 | PEO-1 | 13.4
C=CC(=O)Nc1cccc(Sc2nc(Nc3ccc(N4CCN(C)CC4)cc3)ncc2Cl)c1 + CC[C@H](NC(=O)[C@H](C)NC)C(=O)N1C[C@@H](O)C[C@H]1Cc1c(-c2[nH]c3cc(F)ccc3c2C[C@@H]2C[C@H](O)CN2C(=O)[C@H](CC)NC(=O)[C@H](C)NC)[nH]c2cc(F)ccc12 | PEO-1 | 73.6
Cn1cc(-c2ccc3nnc(Sc4ccc5ncccc5c4)n3n2)cn1 + CC[C@H](NC(=O)[C@H](C)NC)C(=O)N1C[C@@H](O)C[C@H]1Cc1c(-c2[nH]c3cc(F)ccc3c2C[C@@H]2C[C@H](O)CN2C(=O)[C@H](CC)NC(=O)[C@H](C)NC)[nH]c2cc(F)ccc12 | PEO-1 | 117
C[C@@H](O)[C@H](NC(=O)[C@@H]1CSSC[C@H](NC(=O)[C@H](N)Cc2ccccc2)C(=O)N[C@@H](Cc2ccc(O)cc2)C(=O)N[C@H](Cc2c[nH]c3ccccc23)C(=O)N[C@@H](CCCCN)C(=O)N1)C(N)=O + CC[C@H](NC(=O)[C@H](C)NC)C(=O)N1C[C@@H](O)C[C@H]1Cc1c(-c2[nH]c3cc(F)ccc3c2C[C@@H]2C[C@H](O)CN2C(=O)[C@H](CC)NC(=O)[C@H](C)NC)[nH]c2cc(F)ccc12 | PEO-1 | 120
